TESTED_TARGET: Bone morphogenetic protein receptor type-1B (Homo sapiens, UniProt O00238); further: in the data inactive means no Kd found up to 30 µM
Sequence (O00238 whole entry): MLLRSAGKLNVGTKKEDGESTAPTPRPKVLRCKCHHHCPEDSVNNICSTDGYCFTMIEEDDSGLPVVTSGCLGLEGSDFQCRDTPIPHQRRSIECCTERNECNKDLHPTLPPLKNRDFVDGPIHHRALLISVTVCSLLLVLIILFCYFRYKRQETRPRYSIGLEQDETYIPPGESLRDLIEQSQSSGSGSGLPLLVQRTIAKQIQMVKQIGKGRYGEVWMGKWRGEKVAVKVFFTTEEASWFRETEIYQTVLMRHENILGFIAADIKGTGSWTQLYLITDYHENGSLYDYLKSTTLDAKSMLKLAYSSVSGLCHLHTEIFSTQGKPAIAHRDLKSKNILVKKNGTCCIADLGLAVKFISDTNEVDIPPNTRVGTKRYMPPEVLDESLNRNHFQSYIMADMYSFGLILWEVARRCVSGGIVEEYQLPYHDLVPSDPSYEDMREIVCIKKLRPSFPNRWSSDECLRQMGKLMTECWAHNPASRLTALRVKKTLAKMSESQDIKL
The source made the active and inactive calls.
Choose one outcome from this list and give only that: True for active, False for inactive

Worked examples follow.
Cc1c(F)cc(C(=O)NC2CC2)cc1-c1ccc(C(=O)NCC(C)(C)C)cn1 : False
COCCNCc1ccc(-c2cc3nccc(Oc4ccc(NC(=S)NC(=O)Cc5ccc(F)cc5)cc4F)c3s2)nc1 : False
CCS(=O)(=O)N1CC(CC#N)(n2cc(-c3ncnc4[nH]ccc34)cn2)C1 : False
Cc1cc([C@@H](C)Nc2ccccc2C(=O)O)c2nc(N3CCOCC3)cc(=O)n2c1 : False
Cc1ccc(NC(=O)c2ccc(CN3CC[C@H](N(C)C)C3)c(C(F)(F)F)c2)cc1Nc1nccc(-c2cncnc2)n1 : False

[ask] Recorded test call requested for O=C(Nc1cccc(Cl)c1)Nc1ncc(CCNc2ncnc3ccsc23)s1
[reply] False

[ask] Recorded test call requested for CNS(=O)(=O)Nc1nccc(Cc2c(C)c3ccc(Oc4ncccn4)cc3oc2=O)c1F
[reply] False

[ask] Recorded test call requested for COc1cc(N2CCC(N3CCN(C)CC3)CC2)ccc1Nc1ncnc(Nc2ccccc2S(=O)(=O)C(C)C)n1
[reply] True

[ask] Recorded test call requested for CN1CCC(CNc2ccc3ncc(-c4cccc(OC(F)(F)F)c4)n3n2)CC1
[reply] False

[ask] Recorded test call requested for CNC(=O)c1ccc(-c2cnc3ncc(Cc4ccc5ncccc5c4)n3n2)cc1F
[reply] False

[ask] Recorded test call requested for O=C(O)[C@]1(Cc2cccc(Nc3nccs3)n2)CC[C@@H](Oc2cccc(Cl)c2F)CC1
[reply] False

[ask] Recorded test call requested for C[C@@H](c1ccc2nccn2c1)n1nnc2ncc(-c3cnn(C)c3)nc21
[reply] False

[ask] Recorded test call requested for Cc1cc2c(F)c(Oc3ncnn4cc(OC[C@@H](C)OC(=O)[C@H](C)N)c(C)c34)ccc2[nH]1 [BRIVANIB ALANINATE]
[reply] False

[ask] Recorded test call requested for Cc1nc(N)sc1-c1ccnc(Nc2ccc(N3CCOCC3)cc2)n1
[reply] False

[ask] Recorded test call requested for COc1cc2nccc(Oc3ccc(NC(=O)NC4CC4)c(Cl)c3)c2cc1C(N)=O
[reply] False

====

TESTED_TARGET: Tyrosine-protein kinase CSK (Homo sapiens, UniProt P41240); further: in the data inactive means no Kd found up to 30 µM
Sequence (P41240 whole entry): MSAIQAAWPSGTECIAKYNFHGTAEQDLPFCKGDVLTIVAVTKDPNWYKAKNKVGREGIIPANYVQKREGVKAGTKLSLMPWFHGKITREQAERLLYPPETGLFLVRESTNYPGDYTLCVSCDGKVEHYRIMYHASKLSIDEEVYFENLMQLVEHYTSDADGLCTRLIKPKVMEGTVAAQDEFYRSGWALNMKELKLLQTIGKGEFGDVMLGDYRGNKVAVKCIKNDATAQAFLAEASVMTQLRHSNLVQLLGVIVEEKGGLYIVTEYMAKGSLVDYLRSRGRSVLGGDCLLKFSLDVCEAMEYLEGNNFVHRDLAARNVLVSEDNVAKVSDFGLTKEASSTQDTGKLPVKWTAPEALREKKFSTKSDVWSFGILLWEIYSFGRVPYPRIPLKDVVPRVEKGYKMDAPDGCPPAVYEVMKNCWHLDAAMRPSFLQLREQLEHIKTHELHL
The source made the active and inactive calls.
Entries and their measured Kd follow.

Check out these entries, answers already filled in.
CC(=O)Nc1cccc(-n2c(=O)n(C3CC3)c(=O)c3c(Nc4ccc(I)cc4F)n(C)c(=O)c(C)c32)c1 : > 30 µM (inactive)
COC(=O)[C@@]1(O)C[C@H]2O[C@]1(C)n1c3ccccc3c3c4c(c5c6ccccc6n2c5c31)C(=O)NC4 [K-252A] : > 30 µM (inactive)
CNC(=O)CN1CCC(Oc2cc3c(Nc4cccc(Cl)c4F)ncnc3cc2OC)CC1 : > 30 µM (inactive)
C[C@@H](c1ccc2nccn2c1)n1nnc2ncc(-c3cnn(C)c3)nc21 : > 30 µM (inactive)
CNC(=O)c1ccc(C)c(-n2c(C)cc(OCc3ccc(F)cc3F)c(Br)c2=O)c1 : > 30 µM (inactive)

[ask] # Kd lookup, item Cc1cc(Nc2cc(N3CCN(C)CC3)nc(/C=C/c3ccccc3)n2)n[nH]1
[reply] > 30 µM (inactive)

[ask] # Kd lookup, item CC(C)Nc1cc(-c2c[nH]c(C(=O)N[C@H](CO)c3cccc(Cl)c3)c2)c(Cl)cn1
[reply] > 30 µM (inactive)

[ask] # Kd lookup, item CN(C)C(=O)c1cc2cnc(Nc3ccc(N4CCNCC4)cn3)nc2n1C1CCCC1
[reply] > 30 µM (inactive)

====

TESTED_TARGET: Serine/threonine-protein kinase B-raf (Homo sapiens, UniProt P15056); further: in the data inactive means no Kd found up to 30 µM
Sequence (P15056 whole entry): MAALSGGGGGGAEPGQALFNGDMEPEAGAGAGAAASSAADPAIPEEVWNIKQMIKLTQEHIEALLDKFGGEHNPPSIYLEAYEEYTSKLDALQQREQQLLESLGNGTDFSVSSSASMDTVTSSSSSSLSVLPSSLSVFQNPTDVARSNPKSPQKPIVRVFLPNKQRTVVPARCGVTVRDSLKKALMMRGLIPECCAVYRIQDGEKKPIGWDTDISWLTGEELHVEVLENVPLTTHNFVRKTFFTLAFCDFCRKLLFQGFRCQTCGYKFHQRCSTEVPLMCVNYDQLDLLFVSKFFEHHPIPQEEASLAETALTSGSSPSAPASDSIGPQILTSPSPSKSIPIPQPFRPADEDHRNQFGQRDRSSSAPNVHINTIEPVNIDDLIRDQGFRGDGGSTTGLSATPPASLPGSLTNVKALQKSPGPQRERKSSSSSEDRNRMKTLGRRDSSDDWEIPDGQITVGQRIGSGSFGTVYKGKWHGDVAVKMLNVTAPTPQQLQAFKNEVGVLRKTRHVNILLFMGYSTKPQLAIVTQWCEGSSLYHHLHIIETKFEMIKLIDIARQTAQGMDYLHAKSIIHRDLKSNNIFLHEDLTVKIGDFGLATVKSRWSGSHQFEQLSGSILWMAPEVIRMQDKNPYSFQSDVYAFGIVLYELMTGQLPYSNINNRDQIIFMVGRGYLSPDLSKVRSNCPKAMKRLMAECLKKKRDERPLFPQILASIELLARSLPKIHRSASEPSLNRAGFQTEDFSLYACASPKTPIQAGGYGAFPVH
Activity calls are given as the source filed them.
Choose one outcome from this list and give only that: active, inactive

Worked examples follow.
O=C1NC(=O)/C(=C/c2ccc3nccc(-c4ccncc4)c3c2)S1 : inactive
C=CC(=O)N1CCC(Oc2cc3c(Nc4ccc(Cl)c(Cl)c4F)ncnc3cc2OC)CC1 : inactive
Cc1ccc(S(=O)(=O)Nc2nc3ccccc3nc2Nc2ccc3nsnc3c2)cc1 : inactive
COc1ccc(-c2ccc3c(N4CCOC[C@@H]4C)nc(N4CCOC[C@@H]4C)nc3n2)cc1CO : inactive
CN1CC[C@@H](c2c(O)cc(O)c3c(=O)cc(-c4ccccc4Cl)oc23)[C@@H]1CO : inactive
Cc1ccc(NC(=O)c2ccc(CN3CC[C@H](N(C)C)C3)c(C(F)(F)F)c2)cc1Nc1nccc(-c2cncnc2)n1 : active
O=c1sn(-c2cccc3ccccc23)c(=O)n1Cc1ccccc1 : inactive

Shift focus to the following entry.
[ask] Recorded test call requested for C[C@@H]1CN(Cc2ccc(F)cc2)[C@@H](C)CN1C(=O)c1cc2c(C(=O)C(=O)N(C)C)cn(C)c2cc1Cl
[reply] inactive

====

Active and inactive are the calls of the source.
Quick note: these are Kd numbers for system: Dual specificity mitogen-activated protein kinase kinase 3 (Homo sapiens, UniProt P46734); further: in the data inactive means no Kd found up to 30 µM
Sequence (P46734 whole entry): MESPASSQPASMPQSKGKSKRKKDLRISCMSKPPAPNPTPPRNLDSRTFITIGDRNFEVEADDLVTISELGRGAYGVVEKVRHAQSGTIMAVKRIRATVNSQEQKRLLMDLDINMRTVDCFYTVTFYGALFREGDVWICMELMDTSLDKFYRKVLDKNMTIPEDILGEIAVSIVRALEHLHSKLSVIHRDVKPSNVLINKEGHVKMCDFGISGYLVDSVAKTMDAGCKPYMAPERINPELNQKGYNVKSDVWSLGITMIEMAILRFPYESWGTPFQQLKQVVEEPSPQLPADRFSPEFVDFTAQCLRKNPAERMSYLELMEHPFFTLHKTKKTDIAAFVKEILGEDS

Check out these entries, answers already filled in.
COc1cc(OC)c(/C=C/S(=O)(=O)Cc2ccc(OC)c(NCC(=O)O)c2)c(OC)c1 : > 30 µM (inactive)
Cc1ccc(S(=O)(=O)Nc2nc3ccccc3nc2Nc2ccc3nsnc3c2)cc1 : > 30 µM (inactive)
OCCn1cc(-c2cnc3nnn(Cc4ccc5ncccc5c4)c3n2)cn1 : > 30 µM (inactive)

[ask] Give Dual specificity mitogen-activated protein kinase kinase 3 (Homo sapiens, UniProt P46734) Kd for Cc1cc(Nc2cc(N3CCN(C)CC3)nc(/C=C/c3ccccc3)n2)n[nH]1
[reply] > 30 µM (inactive)

[ask] Give Dual specificity mitogen-activated protein kinase kinase 3 (Homo sapiens, UniProt P46734) Kd for C=CC(=O)N1CCC(Oc2cc3c(Nc4ccc(Cl)c(Cl)c4F)ncnc3cc2OC)CC1
[reply] > 30 µM (inactive)

[ask] Give Dual specificity mitogen-activated protein kinase kinase 3 (Homo sapiens, UniProt P46734) Kd for CN1N=C(N)c2cn([C@@H]3O[C@H](COP(=O)(O)O)[C@@H](O)[C@H]3O)c3ncnc1c23 [TRICIRIBINE PHOSPHATE]
[reply] > 30 µM (inactive)

====

TESTED_TARGET: Tyrosine-protein kinase Lyn (Homo sapiens, UniProt P07948); further: in the data inactive means no Kd found up to 30 µM
Sequence (P07948 whole entry): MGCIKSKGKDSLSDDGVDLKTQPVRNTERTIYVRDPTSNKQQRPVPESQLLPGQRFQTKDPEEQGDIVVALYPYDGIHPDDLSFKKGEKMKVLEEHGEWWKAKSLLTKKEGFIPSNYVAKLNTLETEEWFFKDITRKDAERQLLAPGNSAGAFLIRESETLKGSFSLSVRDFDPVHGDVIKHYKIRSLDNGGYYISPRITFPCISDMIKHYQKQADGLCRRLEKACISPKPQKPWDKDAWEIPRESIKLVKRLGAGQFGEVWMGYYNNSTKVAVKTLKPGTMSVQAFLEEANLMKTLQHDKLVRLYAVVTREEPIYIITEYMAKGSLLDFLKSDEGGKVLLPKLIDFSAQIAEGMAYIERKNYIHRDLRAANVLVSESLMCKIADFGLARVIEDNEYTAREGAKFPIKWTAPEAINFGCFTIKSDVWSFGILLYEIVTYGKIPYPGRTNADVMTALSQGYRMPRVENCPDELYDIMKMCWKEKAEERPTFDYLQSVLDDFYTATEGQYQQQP
Active and inactive are the calls of the source.
Choose one outcome from this list and give only that: YES for active, NO for inactive

O=C(Nc1ccc(-c2ccnc(Nc3ccc(N4CCOCC4)cc3)n2)cc1)C1CCCN1 (stereo not drawn) : NO
COC(=O)[C@@]1(O)C[C@H]2O[C@]1(C)n1c3ccccc3c3c4c(c5c6ccccc6n2c5c31)C(=O)NC4 [K-252A] : NO
COc1cc2nccc(Oc3ccc(NC(=O)Nc4cc(C)on4)c(Cl)c3)c2cc1OC : YES
OCCn1cc(-c2cnc3nnn(Cc4ccc5ncccc5c4)c3n2)cn1 : NO
Cc1cc([C@@H](C)Nc2ccccc2C(=O)O)c2nc(N3CCOCC3)cc(=O)n2c1 : NO
Cc1cc(Nc2cc(N3CCN(C)CC3)nc(/C=C/c3ccccc3)n2)n[nH]1 : NO
O=C1NC(=O)/C(=C/c2ccc3nccc(-c4ccncc4)c3c2)S1 : NO

Shift focus to the following entry.
[ask] Recorded test call requested for Cc1ccc(-n2nc(C(C)(C)C)cc2NC(=O)NCc2cc(F)ccc2Oc2ccc3c(cnn3CCO)c2)cc1
[reply] YES

====

TESTED_TARGET: Ephrin type-A receptor 2 (Homo sapiens); further: in the data inactive means no Kd found up to 30 µM
Sequence (P29317 whole entry): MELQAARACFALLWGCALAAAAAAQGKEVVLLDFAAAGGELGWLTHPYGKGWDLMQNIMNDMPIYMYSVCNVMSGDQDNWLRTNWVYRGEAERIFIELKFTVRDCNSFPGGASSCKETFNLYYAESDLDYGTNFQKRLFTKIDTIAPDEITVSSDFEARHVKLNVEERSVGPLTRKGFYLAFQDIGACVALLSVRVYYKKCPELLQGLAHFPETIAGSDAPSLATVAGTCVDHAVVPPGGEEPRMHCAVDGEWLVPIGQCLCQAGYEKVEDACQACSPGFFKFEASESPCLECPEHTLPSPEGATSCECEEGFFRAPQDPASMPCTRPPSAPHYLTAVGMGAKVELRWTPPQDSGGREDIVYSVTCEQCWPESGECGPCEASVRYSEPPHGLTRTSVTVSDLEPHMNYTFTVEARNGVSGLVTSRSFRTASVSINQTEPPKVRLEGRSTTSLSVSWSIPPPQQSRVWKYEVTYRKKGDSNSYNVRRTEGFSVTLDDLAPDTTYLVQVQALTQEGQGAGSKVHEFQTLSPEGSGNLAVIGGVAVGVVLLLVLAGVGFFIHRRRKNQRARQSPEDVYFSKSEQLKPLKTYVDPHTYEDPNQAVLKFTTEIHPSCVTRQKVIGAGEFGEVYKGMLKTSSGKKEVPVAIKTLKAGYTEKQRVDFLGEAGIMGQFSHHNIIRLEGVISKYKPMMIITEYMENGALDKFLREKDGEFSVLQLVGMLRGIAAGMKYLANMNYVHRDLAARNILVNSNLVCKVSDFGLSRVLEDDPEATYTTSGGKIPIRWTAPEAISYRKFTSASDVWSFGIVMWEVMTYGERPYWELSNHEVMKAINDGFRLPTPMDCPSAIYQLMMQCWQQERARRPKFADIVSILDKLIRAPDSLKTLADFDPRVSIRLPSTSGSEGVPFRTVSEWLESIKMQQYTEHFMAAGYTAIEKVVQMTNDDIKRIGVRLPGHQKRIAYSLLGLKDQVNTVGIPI
Active and inactive are the calls of the source.
Choose one outcome from this list and give only that: true = active, false = inactive

Worked examples follow.
Cc1ccc(-n2nc(C(C)(C)C)cc2NC(=O)NCc2cc(F)ccc2Oc2ccc3c(cnn3CCO)c2)cc1 [PEXMETINIB] : true
Cn1cc(-c2ccc3nnc(C(F)(F)c4ccc5ncccc5c4)n3n2)cn1 [JNJ-38877605] : false
CN1CCC(COc2cnc(-c3cccc(Cn4nc(-c5cccc(C#N)c5)ccc4=O)c3)nc2)CC1 [TEPOTINIB] : false
COc1cc(CCc2cc(NC(=O)c3ccc(N4C[C@@H](C)N[C@@H](C)C4)cc3)n[nH]2)cc(OC)c1 [AZD-4547] : false

Shift focus to the following entry.
[ask] Recorded test call requested for CCS(=O)(=O)N1CC(CC#N)(n2cc(-c3ncnc4[nH]ccc34)cn2)C1 [BARICITINIB]
[reply] false

====

TESTED_TARGET: Breakpoint cluster region protein (Homo sapiens, UniProt P11274); further: in the data inactive means no Kd found up to 30 µM
Sequence (P11274 whole entry): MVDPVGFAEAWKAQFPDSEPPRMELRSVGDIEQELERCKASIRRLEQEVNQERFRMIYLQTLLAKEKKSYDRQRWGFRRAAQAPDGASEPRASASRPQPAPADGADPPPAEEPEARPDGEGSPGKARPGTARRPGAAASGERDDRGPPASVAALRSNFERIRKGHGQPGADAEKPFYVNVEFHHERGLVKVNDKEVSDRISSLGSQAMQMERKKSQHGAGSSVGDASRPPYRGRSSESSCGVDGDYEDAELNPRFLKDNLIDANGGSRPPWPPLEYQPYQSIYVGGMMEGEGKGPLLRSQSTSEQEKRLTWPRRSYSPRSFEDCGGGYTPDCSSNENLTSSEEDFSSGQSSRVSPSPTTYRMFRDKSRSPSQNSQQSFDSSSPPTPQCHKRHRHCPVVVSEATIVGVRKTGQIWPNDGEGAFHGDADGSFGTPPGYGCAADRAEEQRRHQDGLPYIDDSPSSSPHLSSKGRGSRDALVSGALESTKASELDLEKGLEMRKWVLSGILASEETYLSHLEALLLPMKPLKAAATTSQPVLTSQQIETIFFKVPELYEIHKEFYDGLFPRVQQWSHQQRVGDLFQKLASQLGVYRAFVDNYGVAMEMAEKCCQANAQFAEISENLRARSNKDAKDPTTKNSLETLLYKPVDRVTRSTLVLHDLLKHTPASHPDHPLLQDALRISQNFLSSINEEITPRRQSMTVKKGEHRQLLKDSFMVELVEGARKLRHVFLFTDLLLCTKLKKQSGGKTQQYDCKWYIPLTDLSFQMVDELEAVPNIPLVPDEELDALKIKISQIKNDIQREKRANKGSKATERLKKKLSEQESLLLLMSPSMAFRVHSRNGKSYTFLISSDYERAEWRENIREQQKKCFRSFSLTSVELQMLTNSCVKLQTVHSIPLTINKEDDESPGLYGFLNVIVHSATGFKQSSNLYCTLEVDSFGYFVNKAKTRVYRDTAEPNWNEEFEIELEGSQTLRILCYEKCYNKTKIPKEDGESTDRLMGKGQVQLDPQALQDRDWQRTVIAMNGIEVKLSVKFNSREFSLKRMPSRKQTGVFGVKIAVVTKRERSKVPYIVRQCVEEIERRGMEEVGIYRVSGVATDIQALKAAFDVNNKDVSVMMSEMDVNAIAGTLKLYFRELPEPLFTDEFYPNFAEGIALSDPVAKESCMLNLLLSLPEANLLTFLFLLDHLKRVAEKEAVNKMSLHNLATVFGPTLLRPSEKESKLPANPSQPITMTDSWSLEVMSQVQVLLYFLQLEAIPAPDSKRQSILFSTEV
Active and inactive are the calls of the source.
Choose one outcome from this list and give only that: 1 (yes) = active, 0 (no) = inactive

Worked examples follow.
CN1CC[C@@H](c2c(O)cc(O)c3c(=O)cc(-c4ccccc4Cl)oc23)[C@@H]1CO : 0 (no)
O=C(O)[C@]1(Cc2cccc(Nc3nccs3)n2)CC[C@@H](Oc2cccc(Cl)c2F)CC1 : 1 (yes)
C=CC(=O)N1CCC(Oc2cc3c(Nc4ccc(Cl)c(Cl)c4F)ncnc3cc2OC)CC1 : 0 (no)
CC(=O)Nc1cccc(-n2c(=O)n(C3CC3)c(=O)c3c(Nc4ccc(I)cc4F)n(C)c(=O)c(C)c32)c1 : 0 (no)
Cc1ccc(NC(=O)c2ccc(CN3CC[C@H](N(C)C)C3)c(C(F)(F)F)c2)cc1Nc1nccc(-c2cncnc2)n1 : 1 (yes)

[ask] Recorded test call requested for CC(C)Nc1cc(-c2c[nH]c(C(=O)N[C@H](CO)c3cccc(Cl)c3)c2)c(Cl)cn1
[reply] 0 (no)

[ask] Recorded test call requested for COc1cc2nccc(Oc3ccc(NC(=O)Nc4cc(C)on4)c(Cl)c3)c2cc1OC
[reply] 1 (yes)

[ask] Recorded test call requested for Cc1cc(Nc2cc(N3CCN(C)CC3)nc(/C=C/c3ccccc3)n2)n[nH]1
[reply] 0 (no)
